Numbers sourced from patent US20170275270A1.

Molecular target: Bub1 (Homo sapiens, UniProt O43683)
Sequence (O43683 whole entry): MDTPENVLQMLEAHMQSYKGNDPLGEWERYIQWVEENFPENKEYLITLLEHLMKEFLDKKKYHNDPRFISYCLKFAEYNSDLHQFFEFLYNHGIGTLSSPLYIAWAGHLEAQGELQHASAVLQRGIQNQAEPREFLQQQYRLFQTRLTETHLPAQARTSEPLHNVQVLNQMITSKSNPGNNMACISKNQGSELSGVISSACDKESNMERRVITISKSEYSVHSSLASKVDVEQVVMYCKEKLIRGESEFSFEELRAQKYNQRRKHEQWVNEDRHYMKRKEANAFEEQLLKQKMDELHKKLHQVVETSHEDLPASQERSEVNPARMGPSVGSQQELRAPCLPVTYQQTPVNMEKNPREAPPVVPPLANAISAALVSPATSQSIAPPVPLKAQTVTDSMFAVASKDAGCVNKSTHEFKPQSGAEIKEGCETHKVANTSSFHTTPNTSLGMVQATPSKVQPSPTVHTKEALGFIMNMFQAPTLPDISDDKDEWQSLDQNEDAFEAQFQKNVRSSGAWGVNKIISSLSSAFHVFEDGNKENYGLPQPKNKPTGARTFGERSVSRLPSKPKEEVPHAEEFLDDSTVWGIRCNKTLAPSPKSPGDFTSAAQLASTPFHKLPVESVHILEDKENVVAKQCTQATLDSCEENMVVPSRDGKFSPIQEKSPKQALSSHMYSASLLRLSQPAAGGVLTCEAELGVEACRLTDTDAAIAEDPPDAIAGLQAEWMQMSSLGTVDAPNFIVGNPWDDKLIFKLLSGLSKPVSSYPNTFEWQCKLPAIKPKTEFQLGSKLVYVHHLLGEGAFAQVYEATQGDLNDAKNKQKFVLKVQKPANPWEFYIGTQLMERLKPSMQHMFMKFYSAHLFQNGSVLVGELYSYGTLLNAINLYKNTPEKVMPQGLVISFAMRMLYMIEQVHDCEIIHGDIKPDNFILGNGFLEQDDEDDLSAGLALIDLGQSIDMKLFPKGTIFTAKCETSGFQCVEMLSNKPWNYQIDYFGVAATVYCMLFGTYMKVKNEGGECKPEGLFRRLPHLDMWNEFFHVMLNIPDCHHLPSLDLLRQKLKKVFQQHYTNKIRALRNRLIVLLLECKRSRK
Test: Formation-Assay: phosphorylation status of histone 2A by inhibition of kinase activity of Bub1
Type: cell-based
Details: Biological Assay 4.1: H2A Formation IC50, co-treatment with Nocodazole 1 μg/ml, 16 h
Kindly supply the reported pIC50 values for the records listed here.
On this scale, pIC50 is minus log10 of a concentration expressed in M (mol/L).

Record request: pIC50 value, item CCOc1cc(F)c(Cn2nc(-c3ncc(CCN)c(Nc4ccnc(NC(C)=O)c4)n3)c3ccccc32)c(F)c1 [Example 2-9-13]
6.80

Record request: pIC50 value, item CC(=O)Nc1cc(Nc2nc(-c3nn(Cc4c(F)cc(OCCO)cc4F)c4ccccc34)ncc2C2CCN(CC(F)(F)F)CC2)ccn1 [Example 2-6-13]
8.08

Record request: pIC50 value, item C[S@@+]([O-])CCCc1cnc(-c2nn(Cc3c(F)cc(OCCO)cc3F)c3ccccc23)nc1Nc1ccncc1 [Example 2-4-3]
6.00

Record request: pIC50 value, item CCOc1cc(F)c(Cn2nc(-c3nc(COC)cc(Nc4ccnc(C)c4)n3)c3ccccc32)c(F)c1 [Example 2-12-48]
5.96

Record request: pIC50 value, item CCOc1cc(F)c(Cn2nc(-c3nc(CN4CCOCC4)cc(Nc4ccncc4Cl)n3)c3ccccc32)c(F)c1 [Example 2-12-34]
6.15

Record request: pIC50 value, item COCCOc1cc(F)c(Cn2nc(-c3nc4c(c(Nc5ccnc(C)n5)n3)CC(C)(C)C4)c3ccccc32)c(F)c1 [Example 2-12-61]
5.62

Record request: pIC50 value, item CCOc1cc(F)c(Cn2nc(-c3ncc(CCN)c(Nc4ccnc(C(F)(F)F)c4)n3)c3ccccc32)c(F)c1 [Example 2-9-11]
8.55

Record request: pIC50 value, item CCOc1cc(F)c(Cn2nc(-c3nc(CC)cc(Nc4ccnc(NC(C)=O)c4)n3)c3ccccc32)c(F)c1 [Example 2-12-22]
7.46

Record request: pIC50 value, item CCOc1cc(F)c(Cn2nc(-c3nc(COC)cc(Nc4ccncc4)n3)c3ccccc32)c(F)c1 [Example 2-12-4]
8.05
